Assay Text: Metabolic bioavailability was determined
Type: ADME, organism-based
Test Settings: in vivo
Threshold check on MF: strictly below 20% is true; on or above 20% is false.

Completed entries (count: 5):
Compound | Answer Label
CN1C(=O)N(CCC(COc2ccc(-c3ccccc3)cc2)C(=O)NO)C(=O)C1(C)C (stereo not drawn) | true
O=C(NO)C(CCn1nnc2ccccc2c1=O)COc1ccc(-c2ccccc2)cc1 (stereo not drawn) | false
O=C(NO)C(CCn1nnc2ccccc2c1=O)COCCc1ccc(-c2ccc(Cl)cc2)cc1 (stereo not drawn) | false
O=C(NO)C(CCn1ncc2ccccc2c1=O)COc1ccc(-c2ccccc2)cc1 (stereo not drawn) | true
O=C(NO)C(CCn1c(=O)[nH]c2ccccc2c1=O)COc1ccc(-c2ccccc2)cc1 (stereo not drawn) | false

Does the reported MF of N#Cc1ccc(-c2ccc(OCC(CCn3nnc4ccccc4c3=O)C(=O)NO)cc2)cc1 (stereo not drawn) stay below 20%? false

Does the reported MF of O=C(NO)C(CCN1C(=O)c2ccccc2S1(=O)=O)COc1ccc(-c2ccccc2)cc1 (stereo not drawn) stay below 20%? false

Does the reported MF of O=C(NO)C(CCn1nnc2ccccc2c1=O)COc1ccc(-c2ccc(Cl)cc2)cc1 (stereo not drawn) stay below 20%? false

* * *

Test System: UniProt:P08254
Sequence (P08254 whole entry): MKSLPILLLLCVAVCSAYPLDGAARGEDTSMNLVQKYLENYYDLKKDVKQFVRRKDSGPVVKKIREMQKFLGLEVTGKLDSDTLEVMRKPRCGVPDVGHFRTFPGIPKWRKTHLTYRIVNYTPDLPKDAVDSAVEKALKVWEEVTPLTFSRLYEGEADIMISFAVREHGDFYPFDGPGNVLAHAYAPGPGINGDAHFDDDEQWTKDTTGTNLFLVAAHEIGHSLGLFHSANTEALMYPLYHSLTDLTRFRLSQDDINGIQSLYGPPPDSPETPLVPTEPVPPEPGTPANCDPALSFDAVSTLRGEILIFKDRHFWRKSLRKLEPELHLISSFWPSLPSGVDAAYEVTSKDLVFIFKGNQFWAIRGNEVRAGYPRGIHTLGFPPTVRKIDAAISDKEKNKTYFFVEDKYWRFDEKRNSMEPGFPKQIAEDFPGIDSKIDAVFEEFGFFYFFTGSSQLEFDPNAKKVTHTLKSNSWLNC
Quick reference: IC50 of the listed items.
Hi! Could you send only the number? It should be in nM, unit omitted.

Compound | IC50 / nM
O=C(NO)C(CCn1ncc2ccccc2c1=O)COc1ccc(-c2ccccc2)cc1 (stereo unspecified) | 62
CN1C(=O)N(CCC(COc2ccc(-c3ccccc3)cc2)C(=O)NO)C(=O)C1(C)C (stereo unspecified) | 71
N#Cc1ccc(-c2ccc(OCC(CCn3nnc4ccccc4c3=O)C(=O)NO)cc2)cc1 (stereo unspecified) | 1.1
O=C(NO)C(CCN1C(=O)c2ccccc2S1(=O)=O)COc1ccc(-c2ccccc2)cc1 (stereo unspecified) | 23
O=C(NO)C(CCn1nnc2ccccc2c1=O)COc1ccc(-c2ccc(Cl)cc2)cc1 (stereo unspecified) | 3.2

Next compound, IC50 to be filled in.
I have this compound here, O=C(NO)C(CCn1nnc2ccccc2c1=O)COCCc1ccc(-c2ccc(Cl)cc2)cc1 (stereo unspecified) , and I need its recorded IC50. 4.3

* * *

Heads up, these molecules all have IC50 values measured for 72 kDa type IV collagenase (Homo sapiens, UniProt P08253).

Molecule | IC50
CN1C(=O)N(CCC(COc2ccc(-c3ccccc3)cc2)C(=O)NO)C(=O)C1(C)C (stereo not drawn) | 36 nM

Lab note: need IC50 for O=C(NO)C(CCn1ncc2ccccc2c1=O)COc1ccc(-c2ccccc2)cc1 (stereo not drawn) on 72 kDa type IV collagenase (Homo sapiens, UniProt P08253), anyone have it? 6 nM

Lab note: need IC50 for O=C(NO)C(CCn1nnc2ccccc2c1=O)COc1ccc(-c2ccc(Cl)cc2)cc1 (stereo not drawn) on 72 kDa type IV collagenase (Homo sapiens, UniProt P08253), anyone have it? 0.1 nM

Lab note: need IC50 for O=C(NO)C(CCn1c(=O)[nH]c2ccccc2c1=O)COc1ccc(-c2ccccc2)cc1 (stereo not drawn) on 72 kDa type IV collagenase (Homo sapiens, UniProt P08253), anyone have it? 24 nM

* * *

Test System: Interstitial collagenase (Homo sapiens)
Sequence (P03956 whole entry): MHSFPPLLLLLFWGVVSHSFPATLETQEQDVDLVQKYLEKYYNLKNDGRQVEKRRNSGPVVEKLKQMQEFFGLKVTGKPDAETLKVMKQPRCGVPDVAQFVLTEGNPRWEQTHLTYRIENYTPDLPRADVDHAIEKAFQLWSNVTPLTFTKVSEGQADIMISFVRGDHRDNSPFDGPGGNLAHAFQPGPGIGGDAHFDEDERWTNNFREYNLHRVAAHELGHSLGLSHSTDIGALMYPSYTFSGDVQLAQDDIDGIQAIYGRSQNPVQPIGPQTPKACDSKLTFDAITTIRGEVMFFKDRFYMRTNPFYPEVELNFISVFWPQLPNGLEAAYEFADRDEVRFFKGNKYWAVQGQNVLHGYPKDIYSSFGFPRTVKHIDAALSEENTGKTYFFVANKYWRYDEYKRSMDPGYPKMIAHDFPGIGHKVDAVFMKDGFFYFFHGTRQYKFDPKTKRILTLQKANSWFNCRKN
Assay Text: Inhibition of Matrix metalloprotease-1
Outcome Measure: IC50 (nM)
Hi! Could you send only the number? It should be in nM, unit omitted.

# annotated cases, reported IC50 shown
Compound | Unit | IC50
O=C(NO)C(CCn1nnc2ccccc2c1=O)COc1ccc(-c2ccc(Cl)cc2)cc1 (stereo not drawn) | nM | 74
O=C(NO)C(CCN1C(=O)c2ccccc2C1=O)COc1ccc(-c2ccccc2)cc1 (stereo not drawn) | nM | 768
O=C(NO)C(CCn1nnc2ccccc2c1=O)COc1ccc(-c2ccccc2)cc1 (stereo not drawn) | nM | 31

Next compound, IC50 to be filled in.
Lab note: need IC50 for N#Cc1ccc(-c2ccc(OCC(CCn3nnc4ccccc4c3=O)C(=O)NO)cc2)cc1 (stereo not drawn) on Interstitial collagenase (Homo sapiens), anyone have it? 116
